Molecular target: T1, Anti-CD28 scFv (VH-linker 1-VL) (biotinylated (site not stated))
T1 construct: biotinylated and captured on neutravidin coated plates in the phage ELISA
T1 sequence (scFv, as listed by the source): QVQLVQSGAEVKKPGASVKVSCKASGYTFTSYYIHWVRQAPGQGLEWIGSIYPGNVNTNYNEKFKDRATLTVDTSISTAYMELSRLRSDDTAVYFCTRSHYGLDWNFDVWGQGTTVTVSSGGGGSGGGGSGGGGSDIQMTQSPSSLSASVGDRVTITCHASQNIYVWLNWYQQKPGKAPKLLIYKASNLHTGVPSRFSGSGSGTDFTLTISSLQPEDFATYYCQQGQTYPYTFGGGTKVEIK
Assay: phage ELISA, captured biotinylated scFv; background signal 0.079
Value type: Phage binding ELISA CD28 scFv signal

Examples with their reported Phage binding ELISA CD28 scFv signal follow.
MDWCPRYLWNECFY (label printed as Phage-56 between Phage-65 and Phage-67, probably Phage-66) [Phage-56 (second entry so labelled, SEQ ID NO: 255)]	2.54
MVSCPTTMWNRCFN [Phage-61]	1.33
MDWCPRFMWDECFN [Phage-33]	2.68

Let us move to another entry and its Phage binding ELISA CD28 scFv signal.
Dear colleague, I am looking for the recorded Phage binding ELISA CD28 scFv signal of the following binder: MHWCPVDLWYLCYN [Phage-37] 2.66
